Cited source: paper PMC5004861

target: clathrin purified from bovine brain, P49951; experiment: peptide array overlay assay; conditions: chain shown with the change, n = 1, parent: est. 1.0, read off a plot
quantity-name: ratio to parent
Number only, no unit.

AASSAANAVGNAGAG [CALM iso3 490-…-504 L490A; D491A; L494A; L497A; L501A; I503A]; 0
PAKDPAADANAKDAA [AP180 Site 2 peptide 882-…-896 L887A; L890A; I892A; F895A; L896A]; 0
LASSLANLVGNLGIG [CALM iso3 490-…-504 D491A]; 1

Now consider a different binder.
[Q] Give its ratio to parent value. Item: PAKAPLAALNIKAFL [AP180 Site 2 peptide 882-…-896 D885A; D889A; D894A]
[A] 0.12
